// reported inhibition of growth at 5 µM for each item listed
# Tested on: Toxoplasma gondii RH-2F tachyzoites
# experimental-protocol: microbe, parasite or virus in culture
# condition-info: 72 h, read-out: Parasite inhibition (%) mean, preliminary screen of compound library, mean
attribute-measured: inhibition of growth at 5 µM

* O=C1CCC[C@@H]2[C@@H]3CCCN4CCC[C@H](CN12)[C@@H]34 [Matrine ((+)-Matrine)] | 78.7%
* CCOc1nc2cccc(C(=O)O)c2n1Cc1ccc(-c2ccccc2-c2nc(=O)o[nH]2)cc1 | 4.6%
* O=C(O)c1cccc(-c2noc(-c3ccccc3F)n2)c1 | -0.1%
* O=C1NC(=O)C(=Cc2ccc(-c3ccc(F)cc3)o2)S1 (stereo in doubt) | -7.4%
